# experimentalProtocol: Kinetic solubility in water and four biological media at 37 °C
# Type: physicochemical
# reportedConditions: fassif, pH 6.5, FaSSIF (6.5), 1 h, about 10 mg/mL sample added, read-out: S: Solubility
Structures can show the parent of a compound that is named as a salt.
experimentalReadout: solubility at 1 h (mg/mL)
Numeric answer only, unit mg/mL assumed.

Given the entry CO[C@H]1/C=C/O[C@@]2(C)Oc3c(C)c(O)c4c(c3C2=O)C2=NC3(CCN(CCn5c([N+](=O)[O-])cnc5C)CC3)NC2=C(NC(=O)/C(C)=C\C=C\[C@H](C)[C@H](O)[C@@H](C)[C@@H](O)[C@@H](C)[C@H](OC(C)=O)[C@@H]1C)C4=O [Crystal form I of triphenylacetate salt] , report its measured solubility at 1 h.
0.012

====

# experimentalProtocol: Approximate solubility of the starting free base at room temperature
# Type: physicochemical
# reportedConditions: IPA:H2O (1:1) v:v, room temperature (about 25 °C)
experimentalReadout: solubility

Given the entry CO[C@H]1/C=C/O[C@@]2(C)Oc3c(C)c(O)c4c(c3C2=O)C2=NC3(CCN(CCn5c([N+](=O)[O-])cnc5C)CC3)NC2=C(NC(=O)/C(C)=C\C=C\[C@H](C)[C@H](O)[C@@H](C)[C@@H](O)[C@@H](C)[C@H](OC(C)=O)[C@@H]1C)C4=O [starting free base] , report its measured solubility.
20.5 to 41 mg/mL

====

# experimentalProtocol: Approximate solubility of the starting free base at room temperature
# Type: physicochemical
# reportedConditions: 2-MeTHF, room temperature (about 25 °C)
experimentalReadout: solubility

Given the entry CO[C@H]1/C=C/O[C@@]2(C)Oc3c(C)c(O)c4c(c3C2=O)C2=NC3(CCN(CCn5c([N+](=O)[O-])cnc5C)CC3)NC2=C(NC(=O)/C(C)=C\C=C\[C@H](C)[C@H](O)[C@@H](C)[C@@H](O)[C@@H](C)[C@H](OC(C)=O)[C@@H]1C)C4=O [starting free base] , report its measured solubility.
> 41.4 mg/mL

====

# experimentalProtocol: Approximate solubility of the starting free base at room temperature
# Assay type: physicochemical
# reportedConditions: IPA:H2O (19:1) v:v, room temperature (about 25 °C)
# Experimental: The approximate solubility of the starting free base of the exemplary compound of formula (II) in 5 single solvents and 9 mixed solvents at room temperature (about 25 °C) was also tested. Table 1. Approximate solubility (mg/mL) of the starting free base at room temperature
experimentalReadout: solubility

Given the entry CO[C@H]1/C=C/O[C@@]2(C)Oc3c(C)c(O)c4c(c3C2=O)C2=NC3(CCN(CCn5c([N+](=O)[O-])cnc5C)CC3)NC2=C(NC(=O)/C(C)=C\C=C\[C@H](C)[C@H](O)[C@@H](C)[C@@H](O)[C@@H](C)[C@H](OC(C)=O)[C@@H]1C)C4=O [starting free base] , report its measured solubility.
> 42.2 mg/mL

====

# experimentalProtocol: Approximate solubility of the starting free base at room temperature
# Type: physicochemical
# reportedConditions: IPA, room temperature (about 25 °C)
# Procedure: The approximate solubility of the starting free base of the exemplary compound of formula (II) in 5 single solvents and 9 mixed solvents at room temperature (about 25 °C) was also tested. Table 1. Approximate solubility (mg/mL) of the starting free base at room temperature
experimentalReadout: solubility

Given the entry CO[C@H]1/C=C/O[C@@]2(C)Oc3c(C)c(O)c4c(c3C2=O)C2=NC3(CCN(CCn5c([N+](=O)[O-])cnc5C)CC3)NC2=C(NC(=O)/C(C)=C\C=C\[C@H](C)[C@H](O)[C@@H](C)[C@@H](O)[C@@H](C)[C@H](OC(C)=O)[C@@H]1C)C4=O [starting free base] , report its measured solubility.
> 39.2 mg/mL
